# SYSTEM_TESTED: NC(11-55) (Human immunodeficiency virus type 1)
# PROTOCOL_TEXT: NC inhibition assay (NC-induced cTAR DNA destabilization, fluorescence)
# Type: biochemical, HIV-1
ASSAY_METRIC: pIC50
Give bare numbers, as −log10 of the molar value.

Recorded results for 3 compounds are shown here.
Record summary for `O=C(NCC1CCC1)c1nc(-c2cc3ccccc3cn2)nc(O)c1O` : reported pIC50 = 5.19

Record summary for `Cc1ccnc(-c2nc(O)c(O)c(C(=O)N[C@H](C)C3CCCCC3)n2)c1` : reported pIC50 = 5.07

Record summary for `C[C@H](NC(=O)c1nc(-c2nccc3ccccc23)nc(O)c1O)C1CCCCC1` : reported pIC50 = 4.96

Continue with the next compound.
Record summary for `CC(=O)Nc1ccc(-c2nc(O)c(O)c(C(=O)N[C@H](C)C3CCCCC3)n2)nc1` : reported pIC50 = 4.81

Entry source: patent EP3290412A1
